Sourced from the DeepSol protein solubility set

assay: soluble on expression in E. coli; label from the status in PepcDB or PDB records
measured-endpoint: soluble on expression in E. coli

[[record]]
sequence = "MGSDKIHHHHHHMPTLIERIHQVELGNLTQLDQLCHQLGLPYFLMGGSLLGAIRHQGFIPWDDDVDVGLLRADYDQLLAAAPTHLADSPYFLQTPTSDENYGLSYAKLLDRRTYIEEKRNVNNARKGIFIDIFPLDRIPQDTSAQQKQSTKFQLLNTRILLQLRYHLVDNPLRKLQGPLSSEQLTSVNALKAERQAVMTQYQAEITLPQVKNLSSQYAYAKEVFTVAELSDLTTVPFEHLQVQVPRNYATILTRMYGDYLALPPENQRTKKHLERVIMDNQVFTD"
observed_measurement = "not soluble"

[[record]]
sequence = "MAYQLYRNTTLGNSLQESLDELIQSQQITPQLALQVLLQFDKAINSALAQRVRNRVNFRVRMSSCIWKSVLLTLRAYVDLTHHSKIWLVWFGNLFYNRCAKFIHSMCFRIAFRF"
observed_measurement = "not soluble"


###

assay: soluble on expression in E. coli; label from the status in PepcDB or PDB records
measured-endpoint: soluble on expression in E. coli

Reference set, count: 5
[[record]]
sequence = "MGSDKIHHHHHHMTPSDTNAPVDRLKIGFVLARSFTLSAFALFVDTLRLASDEFDRSGRVLADWDVLGSTRHLITSSCGVQVAPTSDLVEDPSQFQFIVVVGGLLNNEQPIDRETAAFLKKAAAKNVKLIGVCTGSFILAELGLMKSHRTCVSWLHYNAFRERFPDLQVRSDRIFNLDRTRGSCVGGSSAADMAALIVRRHISKDAERNALEVLHIEKARSALAIQTRKPLSIECNDPRIRATLIMMEQHIEGNLPIQDLAAAVGLSRRQLERLFISETKSSPAMIYRRVRLERAKHLLVQSKAPLVEIALEVGFGNASHFAKVFAQTFGQSPTGLRTAIRATL"
observed_measurement = "not soluble"

[[record]]
sequence = "MGSDKIHHHHHHMATLSDFNRDGKRYVALNGVGDDQDQSILFDHVSSYDLIRSFVDANCNWSRVLESRKNQWKPSILPEADGLAYNPPGKPEDIRNCTVSAFGNTHKTINNSLSSQKDVDWFYKGNGTTVIGTDHPLISNLNSYGCGIEIEYAAVFMINAAGDPVYIGYTIANDFSDAEMRRRMPSLANLSKLATTSFGRFLFLAPIPTKTEIACTILRHGKPAWRVNGQLGSEAMKYSFSYLNELLFQNQSIKGDAYTIHYMLLGASISSNKAEFDMKHSDIILVHDEDNNVILRNEYIDEAIVCACC"
observed_measurement = "not soluble"

[[record]]
sequence = "MTEQKNKTSLIEFPCTFPLKVMGAVHPEFEQAVLDTVRLHAPDTQAHHITTRPSSKGNYTGATVQVKVENQEQLDNIYRALTSHELVKVVL"
observed_measurement = "not soluble"

[[record]]
sequence = "MGSDKIHHHHHHMKTLKFKLYQHKRNRHLKRIINAAGVIYNHCIALHKRYYRMWGNHLSCAKLQSHIAKLRKRNLFWQSLGSQAVQDICQRIEKAYQLFFKHNKKGVRPPGFKKVKKYKSFTLKQAGYKFLGSNRVKIGHRVYQFWKSRDIEGTVKTLTIKRTPLGELFMVVVVDNVSQAEIEVKTGKIAGFDFGLKTFLTCSDGTKIESPQFFKQSLNAIKKASRQHSKKLKSSSNRERARKNLVRKYEDISHRRRDWFWKLAHELTDKFDILCFETLNLKGMQRLWGRKISDLAFGEFLQILKWIAKKKNKLVVFIDQWYPSTKTCSGCGHVLEELDLSIREWRCPSCQSVNGRDENASKVICAVGASTVGLGDVSRYETAIAV"
observed_measurement = "not soluble"

[[record]]
sequence = "MGSDKIHHHHHHMKKTSFIYLLLLIALGLSSCQQEKTFKVLQFNIWQEGAVVKGGFDAIADEIVRSNADFVTLSEVRNYHQTRFCDRIVEALQQRGQTYYSFYTEDSGLLSRYPITDSTTVYPLNDDRGSMYKAITHIGDTEVALYTAHLDYRNCAYYDARGYDGNTWDEEPPVTNLDTLLWLNEQSVRDDAIACFLKEAKKDREAGRIVILGGDFNEPSHLDWTEATKDMRDHQGLVVPWHVSVMLEKDGFKDTYREIFPNPVTHPGLTCPADCKDIALEKLVWSPKADDRDRIDFIHYAPFEGLTLTDVCIIGPKGDILRGQRETEETSDPIMTPLGIWPTDHKAVLATFHLK"
observed_measurement = "not soluble"


Prompt: For the sequence "MAHHHHHHMVENELLYENDVSNSGLDGKPRLHSFFNKDGLLLRTYSWTVKKAIGIFLLIHGLNGHVRLQYLRQNVEVISNDKAILKDQDNYYVYKDSWIEKLNDKGYSVYGIDLQGHGLSEGWENLKANINNFDDLVYDVIQYLEEINRTVCLDYERNKYLRAIREKNTDMKALKKDKIPIYIMGLSMGGNVVLRTLELLGKSGDYKNLNIKGCISLSGMICLEELSSKASMKYKYFLVPFSKFISYIFPKCRINQNFNFEMFPFVNDIINFDKHRSKKWITFKFGHQILRSITNLRKDIQYIPKDIPILFVHSIHDCACYYGGVVTFYDQLDNDKKELYTIYDMDHLLTMEPGNEKVLEKVLDWISGSFNNKRRRRRTSS" , what soluble on expression in E. coli is on record?
Response: not soluble
